Just for reference, paper PMC7245562 is where these values come from.

Target: recombinant hsDHFR (Homo sapiens)
Sequence (P00374 whole entry): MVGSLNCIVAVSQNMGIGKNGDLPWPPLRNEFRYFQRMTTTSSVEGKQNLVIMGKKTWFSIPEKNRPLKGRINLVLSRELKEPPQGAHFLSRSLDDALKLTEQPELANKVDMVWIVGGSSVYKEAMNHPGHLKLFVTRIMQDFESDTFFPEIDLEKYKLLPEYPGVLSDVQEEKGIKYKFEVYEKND
Assay: Human DHFR
Assay type: biochemical
Settings: 1 μM compound
attribute_measured: inhibition of hsDHFR activity

Record excerpt, results attached:
| compound | inhibition of hsDHFR activity |
| --- | --- |
| Nc1nc(N)c2nc(-c3cccc(Cl)c3)c(N)nc2n1 [Epiblastin A] | intermediately inhibited |
| CC1(C)N=C(N)N=C(N)N1OCCCOc1cc(Cl)c(Cl)cc1Cl [WR99210] | intermediately inhibited |
| C#CCC(Cc1cnc2nc(N)nc(N)c2n1)c1ccc(C(=O)N[C@@H](CCC(=O)O)C(=O)O)cc1 (some centres unmarked) [Pralatrexate] | completely inhibited |
| Nc1nc(N)c2nc(-c3ccccc3)c(N)nc2n1 [Triamterene] | intermediately inhibited |

Q) Param readout= inhibition of hsDHFR activity; system= recombinant hsDHFR (Homo sapiens); entry= Nc1nc(N)c2nc(CNc3ccc(C(=O)N[C@@H](CCC(=O)O)C(=O)O)cc3)cnc2n1 [aminopterin] ; returns value.
A) completely inhibited
